Listed here are compounds together with their documented cytotoxicity at 70.5 h.
- method summary: Human HepG2 cell viability assay in 384 well format
- Type: toxicity, cell-based
- Set-up: dose 125 nL, time 70.5 hour; concentration not given beside the values
- condition notes: HepG2 cells, read-out: Inhibition
Record the value in %, omitting the unit from your answer.

INSERT INTO results (compound, unit_of_measurement, recorded_result) VALUES
  ('CCOCCNS(=O)(=O)c1ccc2c3c1CCCN3C(=O)CO2', '%', 33.6),
  ('O=C(Cc1csc(-c2ccoc2)n1)NCCCN1CCCCC1', '%', -5.46),
  ('CCCc1n[nH]c(C2CN(CCS(=O)(=O)CC)CCO2)n1 (stereo not given)', '%', -7.9);

Now for another entry.
// cytotoxicity at 70.5 h lookup, key: Cn1ccc(CN2CCC(CO)CC2)cc1=O -9.02

---

- method summary: Human HepG2 cell viability assay in 384 well format
- Format: toxicity, cell-based
- Design: dose 125 nL, time 70.5 hour; concentration not given beside the values
- condition notes: HepG2 cells, read-out: Inhibition
result type: cytotoxicity at 70.5 h (%)
Write the value in % as a bare number.

Examples with their reported cytotoxicity at 70.5 h follow.
INSERT INTO measurements (compound, recorded_result) VALUES
  ('CSc1ccc(C(=O)N2CCOCC2c2c(C)n[nH]c2C)o1 (stereo not given)', 18.3),
  ('CC(=O)c1cccc(NC(=O)N2CCCCC2CN2CCCC2=O)c1 (stereo not given)', -7.82),
  ('COCc1nc(C2CC2)nn1-c1cc(Cl)ccc1OC', -3.71);

Would you mind telling me what cytotoxicity at 70.5 h value was observed for CC(C)(CO)CCCNC(=O)NC1(C)Cc2ccccc2C1 ? -0.326

Consider next the compound Cn1cc(CC(=O)N2CCCC(c3ccn[nH]3)C2)cn1 (stereo not given) in the same way. -1.63

---

- method summary: Human HepG2 cell viability assay in 384 well format
- Format: toxicity, cell-based
- Parameters: dose 125 nL, time 70.5 hour; concentration not given beside the values
- condition notes: HepG2 cells, read-out: Inhibition
result type: cytotoxicity at 70.5 h (%)
Numeric answer only, unit % assumed.

Below, 2 compounds whose answers are already recorded.
INSERT INTO assay_data (compound, result_type, unit_of_measurement, recorded_result) VALUES
  ('OCC1CCCN1c1cc(NCCc2ccsc2)ncn1 (configuration not stated)', 'cytotoxicity at 70.5 h', '%', -15.1),
  ('COc1ccc(C)cc1-n1ccc(C(=O)NCC2CCCOC2)n1 (configuration not stated)', 'cytotoxicity at 70.5 h', '%', -11.7);

In the following, a different compound is considered.
Form field: reported cytotoxicity at 70.5 h of O=C(CN1CCC(OCC2CCCO2)CC1)NCC(F)(F)F (configuration not stated) -7.24

---

- method summary: Human HepG2 cell viability assay in 384 well format
- Format: toxicity, cell-based
- Parameters: dose 125 nL, time 70.5 hour; concentration not given beside the values
- condition notes: HepG2 cells, read-out: Inhibition
result type: cytotoxicity at 70.5 h (%)
Number in %, nothing else.

// below: answered molecules
INSERT INTO measurements (molecule, result_type, recorded_result) VALUES
  ('CCC(C)C(=O)NCc1c(C)nn(C)c1N1CCCN(C)CC1 (stereo not given)', 'cytotoxicity at 70.5 h', 1.79),
  ('CC(Nc1cccc(CN2CCOC2=O)c1)C(=O)N1CCNC1=O (stereo not given)', 'cytotoxicity at 70.5 h', -6.02),
  ('CCN1CCN(C(=O)c2ccnc(N(C)C)c2)CC1', 'cytotoxicity at 70.5 h', 3.26),
  ('COc1ccc(CN2CCC(O)CC2)c(OC)c1', 'cytotoxicity at 70.5 h', -6.19),
  ('CCN(CC)[C@@H]1CN(Cc2ccc(C)o2)[C@@H]2CCCO[C@H]12', 'cytotoxicity at 70.5 h', -14.1),
  ('CC1CCc2nc(O)c(C(=O)NCc3ccncc3)cc2C1 (stereo not given)', 'cytotoxicity at 70.5 h', 5.88);

Data request, read-out cytotoxicity at 70.5 h, for COCC(=O)N1CCC2(CC1)CNc1ccc(F)cc12 -9.36

Next: CC(CO)(NC(=O)NCCc1ccc(Br)s1)C1CC1 (stereo not given) -11

Note, next up: CCN(C)c1ncnc2c1CCN(C(=O)Cc1ccccn1)CC2 -9.09

Again, but for CN(Cc1cnc(N)nc1)C(=O)C1CCN(C(=O)C2CCCC2)CC1 -4.62

Now try CC(C)(C)CCS(=O)(=O)NCCc1csc(N2CCCC2)n1 . -2.83

One more molecule: O=C(NCCn1ccnc1)NCc1ccc(N2CCCCCC2)nc1 -14.2

And then F[C@@H]1CN(CC2CC2)C[C@@H]1OCc1nc2ncccc2[nH]1 , what is it? -3.03

Next: c1c(-c2nc(CN3CCOCC3)no2)nnn1CC1CCCCC1 -13.5

Query Cc1nn(C)c(N2CCOCC2)c1CNCc1ccc(CO)c(F)c1 next -0.89

---

Each record here notes measured cytotoxicity at 70.5 h.
- method summary: Human HepG2 cell viability assay in 384 well format
- Assay type: toxicity, cell-based
- Set-up: dose 125 nL, time 70.5 hour; concentration not given beside the values
- condition notes: HepG2 cells, read-out: Inhibition
Please answer in the form of a number followed by its unit of measurement.

Before answering, review these 4 worked examples.
INSERT INTO measurements (compound, recorded_result) VALUES
  ('Cc1ccc(NS(=O)(=O)c2cccc(C#N)c2)c(CN(C)C)c1', '0.936%'),
  ('CCN1CCC(c2nc3ccc(NC(C)C)cn3n2)CC1', '-0.678%'),
  ('Cc1cc(CN(C)C(=O)CN2CCCCCC2=O)no1', '-10.3%'),
  ('O=C(Cc1ccc(F)c(Br)c1)N1CCN(CCO)CC1', '-3.28%');

Would you kindly share the measured cytotoxicity at 70.5 h for CN(Cc1ccco1)[C@@H]1CN(Cc2ccc(F)cc2)[C@@H]2CCCO[C@H]12 ? 6.23%

Same again, this time with COCCOCC(=O)Nc1ccc(C)cc1Br -3.99%

Likewise for CCc1ccccc1OC1CN(C(=O)c2sccc2N)C1 ? -3.46%

Cool, now CCc1nnc2n1CCN(C(=O)c1ccc(C)c(S(N)(=O)=O)c1)C2 -1.49%

Another compound to look at: O=C(O)[C@@H]1CN(Cc2ccc(-c3cc[nH]n3)s2)C[C@H]1C1CC1 -4.26%

---

Some molecules, each annotated with its measured cytotoxicity at 70.5 h.
- method summary: Human HepG2 cell viability assay in 384 well format
- Type: toxicity, cell-based
- Set-up: dose 125 nL, time 70.5 hour; concentration not given beside the values
- condition notes: HepG2 cells, read-out: Inhibition
I'd appreciate it if you wrote the number followed by its unit.

Take a look at these entries with their results.
INSERT INTO measurements (molecule, result_type, recorded_result) VALUES
  ('COCCN1CCCc2sc(C(=O)NCC3CCCO3)nc21 (stereo unspecified)', 'cytotoxicity at 70.5 h', '31.2%'),
  ('Cc1cc(C2CCCN2C(=O)CN(C)Cc2ccccc2)no1 (stereo unspecified)', 'cytotoxicity at 70.5 h', '-5.16%'),
  ('CC(C)c1nc2c(n1C)CCN(CC(=O)Nc1ccc(Cl)cn1)C2', 'cytotoxicity at 70.5 h', '-14.9%'),
  ('CC(=O)Nc1nc(C(=O)NC(C)c2ccc(C#N)cc2)cs1 (stereo unspecified)', 'cytotoxicity at 70.5 h', '-7.27%'),
  ('O=C(c1ccncc1F)N1C[C@H]2CC[C@@H]1CN(Cc1cccnc1)C2', 'cytotoxicity at 70.5 h', '-4.95%');

Continue with the next molecule.
Look up cytotoxicity at 70.5 h for this molecule: OCc1cn([C@@H]2c3ccccc3C3(CCNCC3)[C@H]2O)nn1 -9%

---

- method summary: Human HepG2 cell viability assay in 384 well format
- Format: toxicity, cell-based
- Parameters: dose 125 nL, time 70.5 hour; concentration not given beside the values
- condition notes: HepG2 cells, read-out: Inhibition
Below is a list of entries, each paired with its recorded cytotoxicity at 70.5 h value.

INSERT INTO measurements (compound, result_type, recorded_result) VALUES
  ('CS(=O)(=O)c1nccn1Cc1ccc(F)cc1Cl', 'cytotoxicity at 70.5 h', '-6.78%');

# context switch: different compound, same cytotoxicity at 70.5 h
Given the entry O=c1[nH]nc2c(N3CCC(NC4CCOCC4)CC3)nccn12 , report its measured cytotoxicity at 70.5 h. -11.2%

---

- method summary: Human HepG2 cell viability assay in 384 well format
- Assay type: toxicity, cell-based
- Design: dose 125 nL, time 70.5 hour; concentration not given beside the values
- condition notes: HepG2 cells, read-out: Inhibition
Documented cytotoxicity at 70.5 h across a set of compounds
Just the number please, in %, no unit attached.

Some solved entries appear below for comparison.
INSERT INTO measurements (compound, unit_of_measurement, recorded_result) VALUES
  ('CNS(=O)(=O)CC(=O)NC(c1cc(C)sc1C)C(C)C (stereo not given)', '%', 2.55),
  ('CCCN1CCc2nc(N3CCOCC3)nc(NC(C)C)c2C1', '%', -8.9),
  ('O=C(NCC1CC2(CO1)CN(c1ncccn1)C2)C1CCC1 (stereo not given)', '%', 2.73),
  ('Cc1nn(C)c(C)c1S(=O)(=O)N(C)Cc1nn(C)c(Cl)c1Cl', '%', 18.2),
  ('CCC(CC)C(=O)c1c[nH]c(C(=O)N2CCN(c3ccccc3)CC2)c1', '%', -3.31);

Which cytotoxicity at 70.5 h is reported for this compound? c1ccc(COC2CCN(c3cncc(-n4cccn4)n3)CC2)cc1 -9.06

Now consider CN1CCN(C(=O)c2nnc3ccc(Cl)cc3n2)CC1 . -10.9
